Can you tell me EC50 for the items I'm about to list?
# Tested on: HSV
# ASSAY SUMMARY: organism not typed
# Format: cell-based, herpes simplex virus
# PROTOCOL CONDITIONS: HEL, read-out: EC50 range against HSV

Asked: Please provide the recorded EC50 for CC(C)(C)C(=O)OCOP(=O)(COCCn1cnc(N)nc1=O)OCOC(=O)C(C)(C)C [Compound 9] , tested on HSV.
Given back: 700 to 1300 nM

Asked: Please provide the recorded EC50 for CCOC(=O)[C@H](Cc1ccccc1)NP(=O)(COCCn1cnc(N)nc1=O)N[C@@H](Cc1ccccc1)C(=O)OCC [Compound 12] , tested on HSV.
Given back: 32000 to 42000 nM

Asked: Please provide the recorded EC50 for CCCCCCCCCCCCCCCCCCOCCOP(=O)(O)COCCn1cnc(N)nc1=O [Compound 17] , tested on HSV.
Given back: 150 to 350 nM

###

# Tested on: human embryonic lung (HEL) cells
# ASSAY SUMMARY: Cytotoxicity, alteration of cell morphology
# Type: cell-based
# PROTOCOL CONDITIONS: microscopically detectable alteration of cell morphology
OBSERVED PROPERTY: Cytotoxicity MCC (minimum cytotoxic concentration)

Asked: Requested read-out: Cytotoxicity MCC (minimum cytotoxic concentration). Entry: `Nc1cc(OCCOCP(=O)(O)O)nc(N)n1`
Given back: >100 µM

Asked: Requested read-out: Cytotoxicity MCC (minimum cytotoxic concentration). Entry: Nc1nc(O)c2ncn(COC(CO)CO)c2n1 [Ganciclovir, reference compound]
Given back: >350 µM

Asked: Requested read-out: Cytotoxicity MCC (minimum cytotoxic concentration). Entry: `CCOC(=O)[C@H](C)NP(=O)(COCCOc1cc(N)nc(N)n1)N[C@@H](C)C(=O)OCC`
Given back: 217 µM

###

# System: human embryonic lung (HEL) cells
# ASSAY SUMMARY: Cytotoxicity, alteration of cell morphology
# Type: cell-based
# PROTOCOL CONDITIONS: microscopically detectable alteration of cell morphology
Can you tell me Cytotoxicity MCC (minimum cytotoxic concentration) for the items I'm about to list?

Asked: Requested read-out: Cytotoxicity MCC (minimum cytotoxic concentration). Entry: `CCCCCCCCCCCCCCCCNC(=O)[C@@H](N)Cc1ccc(OP(=O)(COCCn2cnc(N)nc2=O)Oc2ccc(C[C@H](N)C(=O)NCCCCCCCCCCCCCCCC)cc2)cc1`
Given back: 60 ± 57 µM

Asked: Requested read-out: Cytotoxicity MCC (minimum cytotoxic concentration). Entry: `CC(C)(C)C(=O)OCOP(=O)(COCCOc1cc(N)nc(N)n1)OCOC(=O)C(C)(C)C`
Given back: ≥100 µM

Asked: Requested read-out: Cytotoxicity MCC (minimum cytotoxic concentration). Entry: `CC(C)(C)C(=O)OCOP(=O)([O-])COCCOc1cc(N)nc(N)n1.[Na+]`
Given back: >100 µM

Asked: Requested read-out: Cytotoxicity MCC (minimum cytotoxic concentration). Entry: `CCCCCCCCCCCCCCCCCCOCCNc1ncn(CCOCP(=O)(OCCOCCCCCCCCCCCCCCCCCC)OCCOCCCCCCCCCCCCCCCCCC)c(=O)n1`
Given back: 100 µM

Asked: Requested read-out: Cytotoxicity MCC (minimum cytotoxic concentration). Entry: `CC(C)(C)C(=O)OCOP(=O)(COCCn1cnc(N)nc1=O)OCOC(=O)C(C)(C)C`
Given back: 209 µM

Asked: Requested read-out: Cytotoxicity MCC (minimum cytotoxic concentration). Entry: `CCCCCCCCCCCCCCCCCCOCCOP(=O)(O)COCCn1cnc(N)nc1=O`
Given back: 100 ± 0 µM

Asked: Requested read-out: Cytotoxicity MCC (minimum cytotoxic concentration). Entry: Nc1nc2c(ncn2COCCO)c(=O)[nH]1 [Acyclovir, reference compound]
Given back: >440 µM

Asked: Requested read-out: Cytotoxicity MCC (minimum cytotoxic concentration). Entry: `CC(C)OC(=O)OCOP(=O)(COCCn1cnc(N)nc1=O)OCOC(=O)OC(C)C`
Given back: >100 µM

Asked: Requested read-out: Cytotoxicity MCC (minimum cytotoxic concentration). Entry: `COP(=O)(O)COCCn1cnc(N)nc1=O`
Given back: >100 µM

Asked: Requested read-out: Cytotoxicity MCC (minimum cytotoxic concentration). Entry: `CCOC(=O)[C@H](Cc1ccccc1)NP(=O)(O)COCCn1cnc(N)nc1=O`
Given back: >100 µM

Asked: Requested read-out: Cytotoxicity MCC (minimum cytotoxic concentration). Entry: `CC(C)OC(=O)OCOP(=O)(O)COCCn1cnc(N)nc1=O`
Given back: >100 µM

Asked: Requested read-out: Cytotoxicity MCC (minimum cytotoxic concentration). Entry: `CCCCCCCCCCCCCCCCCCOCCOP(=O)(COCCn1cnc(N)nc1=O)OCCOCCCCCCCCCCCCCCCCCC`
Given back: 20 µM

Asked: Requested read-out: Cytotoxicity MCC (minimum cytotoxic concentration). Entry: `CC(C)(C)C(=O)OCOP(=O)([O-])COCCn1cnc(N)nc1=O.[Na+]`
Given back: >275 µM

Asked: Requested read-out: Cytotoxicity MCC (minimum cytotoxic concentration). Entry: Nc1ccn(C[C@@H](CO)OCP(=O)(O)O)c(=O)n1.O.O [Cidofovir, reference compound]
Given back: ≥300 µM

Asked: Requested read-out: Cytotoxicity MCC (minimum cytotoxic concentration). Entry: O=c1[nH]c(=O)n([C@H]2C[C@H](O)[C@@H](CO)O2)cc1/C=C/Br [Brivudin, reference compound]
Given back: 300 µM

Asked: Requested read-out: Cytotoxicity MCC (minimum cytotoxic concentration). Entry: `CCOC(=O)[C@H](Cc1ccccc1)NP(=O)(COCCn1cnc(N)nc1=O)N[C@@H](Cc1ccccc1)C(=O)OCC`
Given back: >100 µM
